test: in vitro; conditions: human, hela cells, % viability
Measured viability at 28.5 h, 10 µM by item
Output spec: scalar in %, unitless text.

- COMPOUND: "N#Cc1ccc(COc2cccc(Cl)c2Cl)cc1 [CBK002611]"
  viability at 28.5 h, 10 µM [%]: 92.5
- COMPOUND: "O=C(CSc1ccc2ccccc2n1)NNC(=O)c1cccc([N+](=O)[O-])c1 [CBK262506]"
  viability at 28.5 h, 10 µM [%]: 91.7
- COMPOUND: "O=C(c1cnccn1)N1C[C@@H]2OCC(=O)N(CC3CC3)[C@@H]2C1 [CBK289681]"
  viability at 28.5 h, 10 µM [%]: 91.3
- COMPOUND: "O=C(Nc1ccccc1)O[C@@H]1CO[C@H]2[C@@H]1OC[C@@H]2Nc1nccc(-c2cccs2)n1 [CBK289513]"
  viability at 28.5 h, 10 µM [%]: 97.8
- COMPOUND: "O=C(O)C1Nc2ccc(Br)cc2C2C=CCC12 (stereo not drawn) [CBK026482]"
  viability at 28.5 h, 10 µM [%]: 92.1
- COMPOUND: "CN(C)c1ccccc1-c1cc(Nc2ccc3cn[nH]c3c2)ncn1 [CBK090850]"
  viability at 28.5 h, 10 µM [%]: 55.7
- COMPOUND: "Cc1sc2ncn(CC(=O)NCc3nnc4n3CCC4)c(=O)c2c1C [CBK305654]"
  viability at 28.5 h, 10 µM [%]: 93.8
- COMPOUND: "O=C(Cc1ccc(Br)cc1)N1CCC(Cc2ccccc2)CC1 [CBK058493]"
  viability at 28.5 h, 10 µM [%]: 96.7

Now examine the next entry.
Q) Looking for the measured viability at 28.5 h, 10 µM of CC1CCC(N(CCCN)Cc2ccco2)CC1C (stereo not drawn) [CBK268947] , can you help?
A) 95.6
